Tested on: Enterobacter hafniae RO 46
Assay: In vitro antibacterial activity, MIC, Enterobacter hafniae RO 46
Assay type: cell-based
Details: Hafnia alvei, RO46; Enterobacter hafniae RO 46; 37° C., pH=7.4, inoculum 10^4; read-out: MIC
Procedure: Tests carried out in vitro in accordance with the experimental procedure described hereunder have provided evidence of the antibacterial activity in question. For this purpose, the M.I.C. were determined i.e. the minimal inhibiting concentrations of the compound under study acting on the growth of the bacteria at 37° C. The serial dilutions method was used utilizing a MUELLER HINTON gelose medium at pH=7.4 and a bacterial inoculum of 10^4 units forming colonies. […]
endpoint: MIC (µg/mL)
Provide only the numeric value, understood in µg/mL.

So what's the measured MIC for this one? `CCn1cc(C(=O)O)c(=O)c2cc(C=NOCCCN(C)C)sc21`
6.25

Continue with `CCn1cc(C(=O)O)c(=O)c2cc(C=Nc3ccccc3O)sc21`
1.56

Proceed to `CCn1cc(C(=O)O)c(=O)c2cc(/C=N\O)sc21`
12.5

`CCn1cc(C(=O)O)c(=O)c2cc(C=Nc3ccc(OC)cc3)sc21` ?
1.56

----------
Recorded MIC by entry
System: Enterobacter hafniae RO 46
Test: In vitro antibacterial activity, MIC, Enterobacter hafniae RO 46
Format: cell-based
Conditions: Hafnia alvei, RO46
Protocol: Tests carried out in vitro in accordance with the experimental procedure described hereunder have provided evidence of the antibacterial activity in question. For this purpose, the M.I.C. were determined i.e. the minimal inhibiting concentrations of the compound under study acting on the growth of the bacteria at 37° C. The serial dilutions method was used utilizing a MUELLER HINTON gelose medium at pH=7.4 and a bacterial inoculum of 10^4 units forming colonies. […]
Form entry: enter the amount, then its unit.

Would you please look over these solved cases?
# molecule, MIC
records = [
    ("CCn1cc(C(=O)O)c(=O)c2cc(C=Nc3ccccc3)sc21 [Compound J]", "3.12 µg/mL"),
    ("CCn1cc(C(=O)O)c(=O)c2cc(/C=N/O)sc21 [Compound B]", "3.12 µg/mL"),
    ("CCn1cc(C(=O)O)c(=O)c2cc(C=NOC)sc21 [Compound D]", "1.56 µg/mL"),
]

Look up MIC for this molecule: CCn1cc(C(=O)O)c(=O)c2cc(C=NO)sc21 [Compound A]
1.56 µg/mL

Now the molecule CCn1cc(C(=O)O)c(=O)c2cc([N+](=O)[O-])sc21 [Compound Y, reference compound]
3.12 µg/mL

----------
Catalogue of MIC readings, one per entry.
tested on: Staphylococcus aureus 53154 IP; experiment: In vitro antibacterial activity, MIC, Staphylococcus aureus 53154 IP; type: cell-based; settings: Staphylococcus aureus 53154 IP; 37° C., pH=7.4, inoculum 10^4; read-out: MIC
Reply numerically in µg/mL, unit not repeated.

# smiles string, test system, MIC (µg/mL)
data = [
    ("CCn1cc(C(=O)O)c(=O)c2cc(C=NOCCCN(C)C)sc21", "Staphylococcus aureus 53154 IP", 6.25),
]

If you can, please state the reported MIC value of `CCn1cc(C(=O)O)c(=O)c2cc(C=NO)sc21` .
25

----------
tested on: Staphylococcus aureus 53154 IP; experiment: In vitro antibacterial activity, MIC, Staphylococcus aureus 53154 IP; type: cell-based; settings: Staphylococcus aureus 53154 IP; 37° C., pH=7.4, inoculum 10^4; read-out: MIC
endpoint: MIC

# molecule, endpoint, value measured
measured = [
    ("CCn1cc(C(=O)O)c(=O)c2cc(C=Nc3ccccc3)sc21 [Compound J]", "MIC", "> 100 µg/mL"),
    ("CCn1cc(C(=O)O)c(=O)c2cc(C(=O)O)sc21 [Compound X, reference compound]", "MIC", "> 100 µg/mL"),
]

Consider the additional molecule presented here.
Query MIC on Staphylococcus aureus 53154 IP for CCn1cc(C(=O)O)c(=O)c2cc(C=Nc3ccc(OC)cc3)sc21 [Compound G]
> 100 µg/mL
